Test system: Human alphaherpesvirus 2
Assay: Antiviral activity against Herpes simplex virus G infected in HEL cells assessed as inhibition of virus-induced cytopathicity
Format: functional, organism-based, strain G
Conditions: Human alphaherpesvirus 2, strain G, HEL
Kindly supply the reported EC50 values for the records listed here.

So the reported EC50 for C[C@H](Cn1cnc2c(N)ncnc21)OCP(=O)(N[C@@H](C)C(=O)OCC(C)(C)C)Oc1cccc2c1CCCC2 (some centres undefined) , on Human alphaherpesvirus 2, turned out to be 1.4 µM

Sample C[C@H](Cn1cnc2c(N)ncnc21)OCP(=O)(N[C@@H](C)C(=O)OCc1ccccc1)N[C@@H](C)C(=O)OCc1ccccc1 , system: Human alphaherpesvirus 2. Its EC50 is 3 µM

# EC50 measured on Human alphaherpesvirus 2 for item C[C@H](Cn1cnc2c(N)ncnc21)OCP(=O)(O)O [TENOFOVIR ANHYDROUS] = 122 µM

Test item Nc1ncnc2c1ncn2CCOCP(=O)(O)O ; Human alphaherpesvirus 2; reported EC50 was 6.3 µM

* * *

Test system: Human immunodeficiency virus 2
Assay: Antiviral activity against Human immunodeficiency virus type 2 ROD infected in human CEM cells assessed as inhibition of virus-induced giant cell formation after 4 to 5 days by microscopic analysis
Type: functional, organism-based, ISOLATE ROD, CCRF-CEM
Conditions: Human immunodeficiency virus 2, ISOLATE ROD, CCRF-CEM
Record form. Attribute: log10 of EC50. Fill in for each entry.
Remember, log10 of EC50, in nM.

The recorded log10 of EC50 for entry Nc1ncnc2c1ncn2CCOCP(=O)(O)O equals 3.91

The measured log10 of EC50 associated with C[C@H](NP(=O)(COCCn1cnc2c(N)ncnc21)Oc1cccc2c1CCCC2)C(=O)OCC(C)(C)C (stereo partly drawn) reads 0.85

# log10 of EC50 of C[C@H](Cn1cnc2c(N)ncnc21)OCP(=O)(N[C@@H](C)C(=O)OCc1ccccc1)Oc1cccc2ccccc12 (stereo partly drawn) = 1.04

Summary for this molecule, C[C@H](NP(=O)(COCCn1cnc2c(N)ncnc21)Oc1cccc2ccccc12)C(=O)OCc1ccccc1 (stereo partly drawn) : log10 of EC50 is 1.70

Memo: C[C@H](NP(=O)(COCCn1cnc2c(N)ncnc21)N[C@@H](C)C(=O)OCc1ccccc1)C(=O)OCc1ccccc1 , reported log10 of EC50: 1.40

Lookup result for C[C@H](Cn1cnc2c(N)ncnc21)OCP(=O)(N[C@@H](C)C(=O)OCC(C)(C)C)Oc1cccc2ccccc12 (stereo in doubt; 15) ; measured log10 of EC50: 0.85

Notebook: C[C@H](Cn1cnc2c(N)ncnc21)OCP(=O)(N[C@@H](C)C(=O)OCc1ccccc1)N[C@@H](C)C(=O)OCc1ccccc1 , log10 of EC50 read as 1.15

For reference, reported log10 of EC50 for C[C@H](NP(=O)(COCCn1cnc2c(N)ncnc21)N[C@@H](C)C(=O)OCC(C)(C)C)C(=O)OCC(C)(C)C stands at 1.28

* * *

Give EC50 for every item shown.
System: Human immunodeficiency virus 1
Test: Antiviral activity against Human immunodeficiency virus 1 3B infected in human CEM cells assessed as inhibition of virus-induced giant cell formation after 4 to 5 days by microscopic analysis
Assay type: functional, organism-based, CCRF-CEM
Settings: ccrf-cem
A number alone suffices; assume nM.

EC50 reading for C[C@H](Cn1cnc2c(N)ncnc21)OCP(=O)(N[C@@H](C)C(=O)OCC(C)(C)C)Oc1cccc2ccccc12 (mixture of isomers) : 3

The molecule listed as C[C@H](Cn1cnc2c(N)ncnc21)OCP(=O)(N[C@@H](C)C(=O)OCC(C)(C)C)Oc1cccc2ccccc12 (stereo in doubt; 15) has a reported EC50 of 9
